Target: Beta-galactosidase (Bos taurus, UniProt Q58D55)
Sequence (Q58D55 whole entry): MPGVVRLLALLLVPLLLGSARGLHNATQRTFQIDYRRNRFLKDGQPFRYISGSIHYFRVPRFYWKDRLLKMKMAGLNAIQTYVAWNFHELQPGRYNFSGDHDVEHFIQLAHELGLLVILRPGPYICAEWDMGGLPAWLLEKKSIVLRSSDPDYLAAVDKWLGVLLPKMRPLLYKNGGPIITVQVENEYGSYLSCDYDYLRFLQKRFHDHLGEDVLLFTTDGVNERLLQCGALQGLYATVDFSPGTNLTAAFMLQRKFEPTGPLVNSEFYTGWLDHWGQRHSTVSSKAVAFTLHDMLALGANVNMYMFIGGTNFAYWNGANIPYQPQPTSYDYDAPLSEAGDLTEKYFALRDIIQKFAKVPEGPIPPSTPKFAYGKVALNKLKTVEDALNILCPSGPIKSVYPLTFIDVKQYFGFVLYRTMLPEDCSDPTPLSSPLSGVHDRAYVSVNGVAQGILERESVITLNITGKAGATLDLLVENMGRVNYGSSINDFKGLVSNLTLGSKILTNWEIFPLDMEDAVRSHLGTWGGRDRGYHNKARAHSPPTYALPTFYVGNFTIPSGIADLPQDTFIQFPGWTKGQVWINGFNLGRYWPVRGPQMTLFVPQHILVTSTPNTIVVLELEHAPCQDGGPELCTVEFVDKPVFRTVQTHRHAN
measurement name: IC50 (µM)
The reply should contain only the number, in µM.

Task: Query for Beta-galactosidase (Bos taurus, UniProt Q58D55): what IC50 does the record show for OC[C@H]1N[C@H](CO)[C@@H](O)[C@@H](O)C1O (single isomer, unassigned) ?
Output: 160
